Data credit: PubChem BioAssay (NCI)

- Test system: MDA-MB-231 breast
- Test Protocol: NCI-60 one-dose screen, 48 h (100 = growth as untreated, 0 = no growth, -100 = all killed)
- Applied Conditions: 10 µM unless noted
About 83,000 compounds went through this panel and 20% of them were active in at least one assay; those are over-represented in the sample as a whole.
Lab note: compare growth against 30%. Equal or greater, write Criterion met. Smaller, write Criterion not met.

1. CN1CCN(Cc2ccc(NC(=O)c3cncc(C#Cc4c(N)ncc5ccc(F)cc45)c3)cc2C(F)(F)F)CC1 | Criterion not met
2. COC(=O)c1ccc2[nH]c(O)c(C(=Nc3ccc(N(C)C(=O)CN4CCN(C)CC4)cc3)c3ccc(CCO)cc3)c2c1 | Criterion met
3. O=C1OC(c2ccc(-c3ccccc3)cc2)=C/C1=C/c1c2ccccc2cc2ccccc12 | Criterion met
4. CCCCN(CCCC)c1ccc(C(=O)O)cc1 | Criterion met
5. NCCCOc1cc(Cl)ccc1NC(=O)c1cc2ccccc2cc1OCCCN | Criterion not met
